FLT3 (Homo sapiens (Human), UniProt P36888) measurements of IC50, listed per entry.
Sequence (P36888 27-993, species assumed): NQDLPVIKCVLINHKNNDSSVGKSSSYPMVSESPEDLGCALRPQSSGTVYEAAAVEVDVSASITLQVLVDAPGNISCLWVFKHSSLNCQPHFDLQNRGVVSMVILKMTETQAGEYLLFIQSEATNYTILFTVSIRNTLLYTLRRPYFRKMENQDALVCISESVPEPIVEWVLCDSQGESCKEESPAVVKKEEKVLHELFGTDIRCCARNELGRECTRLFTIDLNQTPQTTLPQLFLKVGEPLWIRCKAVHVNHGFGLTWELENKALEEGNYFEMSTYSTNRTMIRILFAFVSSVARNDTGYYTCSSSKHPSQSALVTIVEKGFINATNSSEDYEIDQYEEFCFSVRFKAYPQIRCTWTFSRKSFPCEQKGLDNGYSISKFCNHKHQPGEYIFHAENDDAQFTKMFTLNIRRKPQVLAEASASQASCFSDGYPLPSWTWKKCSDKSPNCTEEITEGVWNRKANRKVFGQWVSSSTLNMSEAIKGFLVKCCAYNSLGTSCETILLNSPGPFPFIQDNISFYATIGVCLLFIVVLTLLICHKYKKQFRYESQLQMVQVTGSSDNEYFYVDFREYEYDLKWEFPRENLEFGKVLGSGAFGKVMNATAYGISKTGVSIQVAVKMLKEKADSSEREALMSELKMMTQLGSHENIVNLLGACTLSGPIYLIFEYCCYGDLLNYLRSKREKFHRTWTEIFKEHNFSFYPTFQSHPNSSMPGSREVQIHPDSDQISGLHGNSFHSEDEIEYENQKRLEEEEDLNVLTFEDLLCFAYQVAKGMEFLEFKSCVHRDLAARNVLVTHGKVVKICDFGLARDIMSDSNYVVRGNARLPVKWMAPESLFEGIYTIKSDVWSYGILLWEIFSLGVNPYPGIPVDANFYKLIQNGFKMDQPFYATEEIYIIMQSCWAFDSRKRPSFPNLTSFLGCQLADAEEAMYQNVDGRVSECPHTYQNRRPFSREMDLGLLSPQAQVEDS

INPUT: Recorded IC50 of [2H]C([2H])([2H])N(Cc1ccc(-c2[nH]c3ncc4c(c3c2-c2ccc(OCCOC)cc2)n([C@@H]2CC[C@@H](NC(=O)OC)C2)c(=O)n4C([2H])([2H])[2H])cc1)C([2H])([2H])[2H] [Example 27] , please.
OUTPUT: 250 to 1250 nM

INPUT: Request: COC(=O)N[C@@H]1CC[C@@H](n2c(=O)n(C)c3cnc4[nH]c(-c5ccc(C(=O)N6CCC(F)(F)CC6)c(F)c5)c(-c5ccc6c(cnn6C(C)C)c5)c4c32)C1 [Example 24]
OUTPUT: > 2500 nM

INPUT: Request: CCNC(=O)c1ccc(-c2[nH]c3ncc4c(c3c2-c2ccc3c(cnn3C(C)C)c2)n([C@@H]2CC[C@@H](NC(=O)OC)C2)c(=O)n4C)cc1OC [Example 18]
OUTPUT: 250 to 1250 nM

INPUT: Request: COCCN(C)C(=O)c1ccc(-c2[nH]c3ncc4c(c3c2-c2ccc3c(cnn3C(C)C)c2)n([C@@H]2CC[C@@H](NC(=O)OC)C2)c(=O)n4C)cc1F [Example 15]
OUTPUT: 1250 to 2500 nM

INPUT: Request: CCNC(=O)c1ccc(-c2[nH]c3ncc4c(c3c2-c2ccc3c(cnn3C(C)C)c2)n([C@@H]2CC[C@@H](NC(=O)OC)C2)c(=O)n4C)cc1 [Example 23]
OUTPUT: 250 to 1250 nM

INPUT: Request: CNC(=O)c1ccc(-c2[nH]c3ncc4c(c3c2-c2ccc3c(cnn3C(C)C)c2)n([C@@H]2CC[C@@H](NC(=O)OC)C2)c(=O)n4C)cc1F [Example 12]
OUTPUT: > 2500 nM

----------
experiment: FaSSIF Solubility Assay; assay type: physicochemical; settings: FaSSIF (fasted state simulated intestinal fluid), 25 °C, pH 6.5, fassif, thermodynamic from solid, FaSSIF pH=6.5, 25° C., read-out: Solubility Fassif
Kindly state solubility at 24 h for each of the entries shown.

INPUT: Recorded solubility at 24 h of [2H]C([2H])([2H])N(Cc1ccc(-c2[nH]c3ncc4c(c3c2-c2ccc3c(c2)COC3(C)C)n([C@@H]2CC[C@@H](NC(=O)OC)C2)c(=O)n4C([2H])([2H])[2H])cc1)C([2H])([2H])[2H] , please.
OUTPUT: > 0.5 mg/mL

INPUT: Request: CN(C)C(=O)c1ccc(-c2[nH]c3ncc4c(c3c2-c2ccc3c(cnn3C)c2)n(C2CCCC2)c(=O)n4C)cc1 [Comparative Example F, reference compound]
OUTPUT: ≤ 0.05 mg/mL

INPUT: Request: COC(=O)N[C@@H]1CC[C@@H](n2c(=O)n(C)c3cnc4[nH]c(-c5ccc(CN(C)C)cc5)c(-c5ccc(F)cc5)c4c32)C1
OUTPUT: > 0.5 mg/mL

INPUT: Request: [2H]C([2H])([2H])n1ncc2cc(-c3c(-c4cn(C)nc4OC)[nH]c4ncc5c(c34)n(C3CCOCC3)c(=O)n5C)ccc21 [Comparative Example B, reference compound]
OUTPUT: ≤ 0.05 mg/mL

----------
pIC50: −log10 of the molar value.
TRKA (Homo sapiens (Human)) measurements of pIC50, listed per entry.
Sequence (P04629 33-796, species assumed): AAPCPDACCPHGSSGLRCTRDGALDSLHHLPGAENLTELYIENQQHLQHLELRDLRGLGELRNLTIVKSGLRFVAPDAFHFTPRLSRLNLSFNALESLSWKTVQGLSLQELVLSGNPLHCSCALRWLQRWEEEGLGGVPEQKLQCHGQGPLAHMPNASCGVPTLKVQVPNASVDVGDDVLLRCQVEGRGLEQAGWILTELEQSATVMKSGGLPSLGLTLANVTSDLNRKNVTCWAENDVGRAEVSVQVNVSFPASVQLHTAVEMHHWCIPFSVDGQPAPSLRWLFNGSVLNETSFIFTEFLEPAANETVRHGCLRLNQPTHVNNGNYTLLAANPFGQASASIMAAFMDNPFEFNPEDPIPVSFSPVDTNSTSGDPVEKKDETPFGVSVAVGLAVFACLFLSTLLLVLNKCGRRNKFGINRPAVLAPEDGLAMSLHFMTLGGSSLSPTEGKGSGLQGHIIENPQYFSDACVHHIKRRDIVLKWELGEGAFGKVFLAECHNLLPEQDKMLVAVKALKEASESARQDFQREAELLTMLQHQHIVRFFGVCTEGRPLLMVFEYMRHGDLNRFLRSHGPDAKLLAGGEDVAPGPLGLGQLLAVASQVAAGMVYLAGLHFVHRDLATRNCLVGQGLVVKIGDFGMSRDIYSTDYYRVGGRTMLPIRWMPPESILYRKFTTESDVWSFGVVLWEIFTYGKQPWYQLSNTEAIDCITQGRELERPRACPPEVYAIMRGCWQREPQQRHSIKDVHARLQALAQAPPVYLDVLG

INPUT: Field: pIC50 (TRKA (Homo sapiens (Human))). Entry: COCCN(C)C(=O)c1ccc(-c2[nH]c3ncc4c(c3c2-c2ccc3c(cnn3C(C)C)c2)n([C@@H]2CC[C@@H](NC(=O)OC)C2)c(=O)n4C)cc1F [Example 15]
OUTPUT: < 5.60

INPUT: Request: CCNC(=O)c1ccc(-c2[nH]c3ncc4c(c3c2-c2ccc3c(cnn3C(C)C)c2)n([C@@H]2CC[C@@H](NC(=O)OC)C2)c(=O)n4C)cc1F [Example 6]
OUTPUT: 5.60 to 5.90

INPUT: Request: COC(=O)N[C@@H]1CC[C@@H](n2c(=O)n(C)c3cnc4[nH]c(-c5ccc(C(=O)N(C)C)cc5)c(-c5ccc6c(cnn6C(C)C)c5)c4c32)C1 [Example 22]
OUTPUT: 5.90 to 6.60

INPUT: Request: Cn1ncc2cc(-c3c(-c4ccc(CN5CCC(S(C)(=O)=O)CC5)cc4)[nH]c4ncc5c(c34)n(C3CCCC3)c(=O)n5C)ccc21 [Comparative Example I, reference compound]
OUTPUT: > 7.60

INPUT: Request: COCCNC(=O)c1ccc(-c2[nH]c3ncc4c(c3c2-c2ccc3c(cnn3C(C)C)c2)n([C@@H]2CC[C@@H](NC(=O)OC)C2)c(=O)n4C)cc1 [Example 19]
OUTPUT: 5.60 to 5.90

INPUT: Request: [2H]C([2H])([2H])N(Cc1ccc(-c2[nH]c3ncc4c(c3c2-c2ccc(OCCOC)cc2)n([C@@H]2CC[C@@H](NC(=O)OC)C2)c(=O)n4C([2H])([2H])[2H])cc1)C([2H])([2H])[2H] [Example 27]
OUTPUT: 5.60 to 5.90

INPUT: Request: COC(=O)N[C@@H]1CC[C@@H](n2c(=O)n(C)c3cnc4[nH]c(-c5ccc(C(=O)NC6CC6C(F)(F)F)c(F)c5)c(-c5ccc6c(cnn6C(C)C)c5)c4c32)C1 (stereo partly drawn) [Example 10]
OUTPUT: < 5.60

INPUT: Request: [2H]C([2H])([2H])N(Cc1ccc(-c2[nH]c3ncc4c(c3c2-c2ccc3c(c2)COC3(C)C)n([C@@H]2CC[C@@H](NC(=O)OC)C2)c(=O)n4C([2H])([2H])[2H])cc1)C([2H])([2H])[2H] [Example 29]
OUTPUT: 5.60 to 5.90

INPUT: Request: CN(C)C(=O)c1ccc(-c2[nH]c3ncc4c(c3c2-c2ccc3c(cnn3C)c2)n(C2CCCC2)c(=O)n4C)cc1 [Comparative Example F, reference compound]
OUTPUT: 6.60 to 7.60

INPUT: Request: CCNC(=O)c1ccc(-c2[nH]c3ncc4c(c3c2-c2ccc3c(cnn3C(C)C)c2)n([C@@H]2CC[C@@H](NC(=O)OC)C2)c(=O)n4C)cc1 [Example 23]
OUTPUT: 5.60 to 5.90

INPUT: Request: COC(=O)N[C@@H]1CC[C@@H](n2c(=O)n(C)c3cnc4[nH]c(-c5ccc(C(=O)NCC(F)(F)F)c(F)c5)c(-c5ccc6c(cnn6C(C)C)c5)c4c32)C1 [Example 11]
OUTPUT: < 5.60

INPUT: Request: COC(=O)N[C@@H]1CC[C@@H](n2c(=O)n(C)c3cnc4[nH]c(-c5ccc(CN(C)C)cc5)c(-c5ccc(F)cc5)c4c32)C1 [Example 28]
OUTPUT: < 5.60

INPUT: Request: CNC(=O)c1ccc(-c2[nH]c3ncc4c(c3c2-c2ccc3c(cnn3C(C)C)c2)n([C@@H]2CC[C@@H](NC(=O)OC)C2)c(=O)n4C)cc1F [Example 12]
OUTPUT: < 5.60

INPUT: Request: [2H]C([2H])([2H])n1c(=O)n([C@@H]2CC[C@@H](NC(=O)OC)C2)c2c3c(-c4ccc5c(cnn5C(C)C)c4)c(-c4ccc(CN(C)C)cc4)[nH]c3ncc21 [Example 26]
OUTPUT: 5.60 to 5.90

INPUT: Request: [2H]C([2H])([2H])N(Cc1ccc(-c2[nH]c3ncc4c(c3c2-c2ccc3c(c2)CC(C)(C)O3)n([C@@H]2CC[C@@H](NC(=O)OC)C2)c(=O)n4C([2H])([2H])[2H])cc1)C([2H])([2H])[2H] [Example 25]
OUTPUT: 5.90 to 6.60

INPUT: Request: Cn1c(=O)n(C2CCCC2)c2c3c(-c4ccccc4)c(-c4ccc(CN5CCC(S(C)(=O)=O)CC5)cc4)[nH]c3ncc21 [Comparative Example H, reference compound]
OUTPUT: 6.60 to 7.60

INPUT: Request: COC(=O)N[C@@H]1CC[C@@H](n2c(=O)n(C)c3cnc4[nH]c(-c5ccc(C(=O)NC6(C(F)(F)F)CC6)c(F)c5)c(-c5ccc6c(cnn6C(C)C)c5)c4c32)C1 [Example 13]
OUTPUT: < 5.60

INPUT: Request: [2H]C([2H])([2H])n1ncc2cc(-c3c(-c4cn(C)nc4OC)[nH]c4ncc5c(c34)n(C3CCOCC3)c(=O)n5C)ccc21 [Comparative Example B, reference compound]
OUTPUT: < 5.60

INPUT: Request: CCNC(=O)c1ccc(-c2[nH]c3ncc4c(c3c2-c2ccc3c(cnn3C(C)C)c2)n([C@@H]2CC[C@@H](NC(=O)OC)C2)c(=O)n4C)cc1OC [Example 18]
OUTPUT: 5.60 to 5.90

INPUT: Request: COC(=O)N[C@@H]1CC[C@@H](n2c(=O)n(C)c3cnc4[nH]c(-c5ccc(C(=O)N6CCOCC6)cc5)c(-c5ccc6c(cnn6C(C)C)c5)c4c32)C1 [Example 20]
OUTPUT: 5.90 to 6.60

INPUT: Request: COC(=O)N[C@@H]1CC[C@@H](n2c(=O)n(C)c3cnc4[nH]c(-c5ccc(C(=O)NC6CC6(F)F)c(F)c5)c(-c5ccc6c(cnn6C(C)C)c5)c4c32)C1 (stereo partly drawn) [Example 9]
OUTPUT: < 5.60
